Numbers sourced from patent US4122204A.

Reported LD50 values for a set of compounds
method-summary: in vivo
experimental-context: rat, in vivo, po, LD50 value (mammalian toxicity), peroral; unit inferred
Procedure: These compounds were also evaluated to determine their peroral toxicity to mammals by conventional methods. The animal selected for this experiment was the rat. The toxicity is reported in […] required for a 50% kill (LD50).

Answered examples (2):
>>> df
                                smiles_repr           result
0                    CNC(=O)Oc1ccccc1OC(C)C  95 to 104 mg/kg
1  CC(C)Oc1ccccc1OC(=O)N(C)SSc1ccc(C(C)(C)C)cc1      > 640 mg/kg

I would be grateful if you could share the reported LD50 for `CNC(=O)Oc1cccc2c1OC(C)(C)C2` .
8 to 14 mg/kg
